Source listed as ChEMBL document CHEMBL1143086.

tested on: Rattus norvegicus; assay: AUC (0 to infinity) in iv dosed Sprague-Dawley rat; type: ADME, organism-based, Plasma; set-up: time infinity, route intravenous; conditions: in vivo
Reported metric: AUC (ng·h/mL)
Field format: number, assumed ng·h/mL, no unit text.

Bench note: what AUC did CC(C)CCn1nc(-c2cccs2)c(O)c(C2=Nc3ccc(NS(C)(=O)=O)cc3S(=O)(=O)N2)c1=O show?
3630

====

Can you tell me AUC for the items I'm about to list?
test system: Cynomolgus monkey; test: AUC (0 to infinity) in cynomolgus monkey at 5 mg/kg, iv; type: ADME, organism-based, Macaca fascicularis, Plasma; design: time infinity, dose 5 mg/kg, route intravenous; conditions: in vivo
Field format: number, assumed ng·h/mL, no unit text.

Identify the measured AUC of CC(C)(C)CCn1nc(-c2cccs2)c(O)c(C2=Nc3ccc(NS(C)(=O)=O)cc3S(=O)(=O)N2)c1=O for Cynomolgus monkey.
17600

Identify the measured AUC of CC(C)CCn1nc(-c2cccs2)c(O)c(C2=Nc3ccc(NS(C)(=O)=O)cc3S(=O)(=O)N2)c1=O for Cynomolgus monkey.
10500
